test system: Kasumi-1; assay: Anti-cancer action: number of viable cells (ATPlite) after 96 hours of culture; type: cell-based; details: Kasumi-1 human acute myeloid leukemia cell line
Assay Readout: IC50 (µM)
The response must be a number in µM with no trailing unit.

Asked: Entry O=C(O[C@@H]1Cc2c(O)cc(O)cc2O[C@@H]1c1cc(O)c(O)c(O)c1)c1cc(O)c(O)c(O)c1 [EGCG, epigallocatechin gallate] : reported IC50 = ?
Given back: 9.6

====

system: U266; assay: Anti-cancer activity enhancing action by PDE5 inhibitor vardenafil (ATPlite cell viability, isobologram analysis); assay type: cell-based; conditions: Homo sapiens, U-266, 96 h, read-out: IC50 of vardenafil alone
Assay Readout: pIC50
// returns pIC50 (minus log10 of molar concentration), number only

Asked: Sample `CCCc1nc(C)c2c(=O)[nH]c(-c3cc(S(=O)(=O)N4CCN(CC)CC4)ccc3OCC)nn12` — what was its pIC50?
Given back: 4.03

====

tested on: HL60; assay: Anti-cancer action: number of viable cells (ATPlite) after 96 hours of culture; assay type: cell-based; details: HL60 human acute myeloid leukemia cell line
Assay Readout: pIC50
Give only the number. pIC50 is defined as minus log10 of concentration in molar units.

Asked: Notebook: pull reported pIC50 for HL60, entry O=C(O[C@@H]1Cc2c(O)cc(O)cc2O[C@@H]1c1cc(O)c(O)c(O)c1)c1cc(O)c(O)c(O)c1 [EGCG, epigallocatechin gallate]
Given back: 5.02
